Assay: recombinant UMI read abundance after kanamycin selection (control-corrected) (log10(CPM+1)); higher = more efficient recombination; extreme values may be limits of the assay; sequences stand for … in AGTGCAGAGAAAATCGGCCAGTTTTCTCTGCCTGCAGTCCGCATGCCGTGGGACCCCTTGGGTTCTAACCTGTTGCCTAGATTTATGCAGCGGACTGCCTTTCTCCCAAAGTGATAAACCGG…AGGTTGGTTTCACT; site = the 11-nt donor
ASSAY ENDPOINT: recombinant UMI read abundance (log10)

>  <BIOSEQUENCE>
CTGTAGGCATGGACCGGTTTTCCCGGTAATCCGTATTTGGC (site ATGTAGGCTGC)

>  <ASSAY RESULT>
0.626

$$$$
>  <BIOSEQUENCE>
CGGGCGTCATGGACCGGTTTTCCCGGTAATCCGTATTTGCC (site CGGGAGTCTGG)

>  <ASSAY RESULT>
0

$$$$
>  <BIOSEQUENCE>
GTCCAGGCATGGACCGGTTTTCCCGGTAATCCGTATTTGTA (site GTCCAGGCTTA)

>  <ASSAY RESULT>
0.928

$$$$
>  <BIOSEQUENCE>
TCGATGTCATGGACCGGTTTTCCCGGTAATCCGTATTTGTA (site TCGATGTCTTA)

>  <ASSAY RESULT>
1.41

$$$$
>  <BIOSEQUENCE>
AGGGCTACATGGACCGGTTTTCCCGGTAATCCGTATTTGAC (site AGGGCTACTGT)

>  <ASSAY RESULT>
2.55

$$$$
>  <BIOSEQUENCE>
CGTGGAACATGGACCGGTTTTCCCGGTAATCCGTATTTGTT (site CGTGGAACTCA)

>  <ASSAY RESULT>
0.251

$$$$
>  <BIOSEQUENCE>
CAGTCCGCATGGACCGGTTTTCCCGGTAATCCGTATTTGCT (site CAGTCCGCTAG)

>  <ASSAY RESULT>
2.64

$$$$
>  <BIOSEQUENCE>
TTTCCGGCATGGACCGGTTTTCCCGGTAATCCGTATTTGCT (site TTTACGGCTAG)

>  <ASSAY RESULT>
0.0335

$$$$
>  <BIOSEQUENCE>
CGGCCATCATGGACCGGTTTTCCCGGTAATCCGTATTTGCT (site CGGACATCTAG)

>  <ASSAY RESULT>
0

$$$$

* * *

Experiment: recombinant barcode read abundance after kanamycin selection (control-corrected) (log10(CPM+1)); higher = more efficient recombination; sequences stand for … in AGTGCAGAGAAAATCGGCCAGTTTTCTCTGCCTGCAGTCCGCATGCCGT…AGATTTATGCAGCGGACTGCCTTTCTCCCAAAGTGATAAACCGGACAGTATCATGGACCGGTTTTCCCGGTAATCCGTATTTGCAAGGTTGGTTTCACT; site = the 11-nt target
Each item that follows carries a reported recombinant barcode read abundance (log10).
ASSAY ENDPOINT: recombinant barcode read abundance (log10)

>  <BIOSEQUENCE>
TACCTACCTTGGGTTCTAACCTGTTGCGA (site TACCTACCTTC)

>  <ASSAY RESULT>
1.92

$$$$
>  <BIOSEQUENCE>
ACTTTAGCTTGGGTTCTAACCTGTTGCAG (site ACATTAGCTTT)

>  <ASSAY RESULT>
0.056

$$$$
>  <BIOSEQUENCE>
CTGGTGTCTTGGGTTCTAACCTGTTGCCT (site CTGGCGTCTAG)

>  <ASSAY RESULT>
0.248

$$$$
>  <BIOSEQUENCE>
TTAGAGGCTTGGGTTCTAACCTGTTGCCT (site TTAGAGTCTAG)

>  <ASSAY RESULT>
0.0154

$$$$
>  <BIOSEQUENCE>
TGCGTCCCTTGGGTTCTAACCTGTTGCCT (site TGAGTCCCTAG)

>  <ASSAY RESULT>
0.405

$$$$
>  <BIOSEQUENCE>
TTGGTGCCTTGGGTTCTAACCTGTTGCCT (site TTGGTGCCTAG)

>  <ASSAY RESULT>
2.13

$$$$
>  <BIOSEQUENCE>
TTGGTGCCTTGGGTTCTAACCTGTTGCCT (site TTGGTTCCTAG)

>  <ASSAY RESULT>
0.0399

$$$$
>  <BIOSEQUENCE>
ATCAGTTCTTGGGTTCTAACCTGTTGCTG (site GATTTCGCTAG)

>  <ASSAY RESULT>
0.155

$$$$
>  <BIOSEQUENCE>
AGGGTGTCTTGGGTTCTAACCTGTTGCTG (site AGGGTGTCTCA)

>  <ASSAY RESULT>
2.55

$$$$
>  <BIOSEQUENCE>
ATAGCGACTTGGGTTCTAACCTGTTGCCT (site ATAGCGACTAG)

>  <ASSAY RESULT>
1.54

$$$$
